biological target: dTGR5 (Canis lupus familiaris, UniProt A0A8I3PZA6); assay: TGR5 cross species activity, dTGR5; assay type: cell-based, dog; settings: Table 3, cross species
Readout kind: EC50

stdin: If you can, please state the reported EC50 value of CC[C@H]1[C@@H](O)[C@@H]2[C@H]([C@@H](O)C[C@]3(C)[C@@H]([C@H](C)CCC(=O)O)CC[C@@H]23)[C@@]2(C)CCCC[C@@H]12 [Compound 1] .
stdout: > 200 µM

---

assay: Water solubility; assay type: physicochemical; details: BA as protonated species, hs = highly soluble, read-out: Ws (water solubility)
The following compounds are listed with their measured solubility values.
Write the number in mM without appending the unit.

stdin: Form field: reported solubility of "CC[C@H]1[C@@H](O)[C@@H]2[C@H](C[C@H](O)[C@]3(C)[C@@H]([C@H](C)C[C@H](C)C(=O)O)CC[C@@H]23)[C@@]2(C)CC[C@@H](O)C[C@@H]12"
stdout: 99

stdin: // lookup solubility for CC[C@H]1[C@@H](O)C2C3C[C@H](O)[C@H]([C@H](C)CCC(=O)O)[C@@]3(C)CCC2[C@@]2(C)CC[C@@H](O)C[C@@H]12 (some centres unmarked)
stdout: 120

stdin: // query solubility value for entry "CC[C@H]1[C@@H](O)[C@@H]2[C@H](CC[C@]3(C)[C@@H]([C@H](C)CCC(=O)O)CC[C@@H]23)[C@@]2(C)CC[C@@H](O)C[C@@H]12"
stdout: 9

stdin: Would you mind telling me what solubility value was observed for CC[C@H]1[C@@H](O)C2C3CC[C@H]([C@H](C)C[C@H](C)C(=O)O)[C@@]3(C)CCC2[C@@]2(C)CC[C@@H](O)C[C@@H]12 (some centres unmarked) ?
stdout: 15

---

target: UniProtKB Q07869; experiment: AlphaScreen nuclear receptor profile (agonist mode), PPARα; assay type: biochemical
pEC50: −log10 of the molar value.
Readout kind: pEC50

stdin: Please give the measured pEC50 for this compound: "CC[C@H]1[C@@H](O)[C@@H]2[C@H]([C@@H](O)C[C@]3(C)[C@@H]([C@H](C)CCC(=O)O)CC[C@@H]23)[C@@]2(C)CCCC[C@@H]12"
stdout: < 3.52

---

target: UniProt P11712; test: CYP450 screening, fluorescent signal, recombinant baculosomes, CYP2C9
pIC50: −log10 of the molar value.
Readout kind: pIC50

stdin: Fill in the blank: the reported pIC50 of "CC[C@H]1[C@@H](O)[C@@H]2[C@H]([C@@H](O)C[C@]3(C)[C@@H]([C@H](C)CCC(=O)O)CC[C@@H]23)[C@@]2(C)CCCC[C@@H]12" is ____.
stdout: < 5.00

---

Target: CYP1A2 (Homo sapiens)
Construct: purchased Invitrogen
Sequence (P05177 1-516): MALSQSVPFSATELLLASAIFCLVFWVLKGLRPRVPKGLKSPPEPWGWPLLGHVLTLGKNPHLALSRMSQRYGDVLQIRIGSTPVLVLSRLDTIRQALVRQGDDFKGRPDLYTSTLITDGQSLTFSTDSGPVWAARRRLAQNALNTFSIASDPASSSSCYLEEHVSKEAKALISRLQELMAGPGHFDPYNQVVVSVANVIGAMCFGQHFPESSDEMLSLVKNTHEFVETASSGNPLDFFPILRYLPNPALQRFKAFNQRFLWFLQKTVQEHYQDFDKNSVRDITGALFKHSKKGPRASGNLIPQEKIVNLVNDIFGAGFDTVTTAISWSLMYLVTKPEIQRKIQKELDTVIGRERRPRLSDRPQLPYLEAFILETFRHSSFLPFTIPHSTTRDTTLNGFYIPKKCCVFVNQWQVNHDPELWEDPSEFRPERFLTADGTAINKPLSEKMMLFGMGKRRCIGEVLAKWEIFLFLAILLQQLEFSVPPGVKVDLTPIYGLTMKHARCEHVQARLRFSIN
Assay: CYP450 screening, fluorescent signal, recombinant baculosomes, CYP1A2
Assay type: in vitro ADME
Readout kind: IC50

stdin: # get_value(readout='IC50', item= CC[C@H]1[C@@H](O)[C@@H]2[C@H]([C@@H](O)C[C@]3(C)[C@@H]([C@H](C)CCC(=O)O)CC[C@@H]23)[C@@]2(C)CCCC[C@@H]12 [Compound 1] )
stdout: > 10 µM

Source: patent US11319337B2
